Biological target: human Bruton's Tyrosine Kinase (Btk) (Homo sapiens (Human), UniProt Q06187)
Sequence (Q06187 whole entry): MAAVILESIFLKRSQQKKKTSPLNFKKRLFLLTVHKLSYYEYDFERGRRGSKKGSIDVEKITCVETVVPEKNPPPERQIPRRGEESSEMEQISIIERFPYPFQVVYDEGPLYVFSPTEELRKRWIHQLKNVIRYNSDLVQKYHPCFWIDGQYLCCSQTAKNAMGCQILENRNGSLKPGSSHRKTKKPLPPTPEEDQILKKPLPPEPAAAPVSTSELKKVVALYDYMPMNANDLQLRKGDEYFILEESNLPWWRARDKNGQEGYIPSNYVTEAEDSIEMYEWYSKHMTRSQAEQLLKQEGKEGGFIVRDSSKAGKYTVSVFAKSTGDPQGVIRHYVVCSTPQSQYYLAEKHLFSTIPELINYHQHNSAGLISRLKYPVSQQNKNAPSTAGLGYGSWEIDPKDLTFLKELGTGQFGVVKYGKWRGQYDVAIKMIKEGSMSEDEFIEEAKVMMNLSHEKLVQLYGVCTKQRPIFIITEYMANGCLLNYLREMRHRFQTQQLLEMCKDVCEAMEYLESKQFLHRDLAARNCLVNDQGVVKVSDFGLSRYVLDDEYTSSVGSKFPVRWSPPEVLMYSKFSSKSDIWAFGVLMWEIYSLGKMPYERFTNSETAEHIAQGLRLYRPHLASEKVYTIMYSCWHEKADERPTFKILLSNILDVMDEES
Test: Recombinant Human Bruton's Tyrosine Kinase (Btk) Inhibition Assay (HTRF KinEASE-TK)
Assay type: biochemical
Settings: 20 ng/ml rhBtk, 77 μM ATP (KM), 1 μM TK-Biotin substrate, 90 min; read-out: hBTK IC50
Each entry below lists one item and its recorded pIC50 value.
Remember the convention: pIC50 equals -log10 of concentration in molar.

Example results:
cpd_smiles=CN1CCC(F)(c2ccc(-c3cc4c(-c5cccc(N6CCOc7cc(C8CC8)ccc7C6=O)c5CO)ccnc4[nH]3)cc2)CC1 meas_value=8.05
cpd_smiles=CC(C)N1CC(n2cnc(-c3cc4c(-c5cccc(N6CCOc7cc(C8CC8)ccc7C6=O)c5CO)ccnc4[nH]3)c2)C1 meas_value=8.15

Ask | # pIC50 lookup, item `O=C(CN1CCC1)N1CC=C(c2cc3c(-c4cccc(N5CCOc6cc(C7CC7)cc(F)c6C5=O)c4CO)ccnc3[nH]2)CC1`
Reply | 8.51

* * *

Target: human Bruton's Tyrosine Kinase (Btk) (Homo sapiens (Human))
Assay: Recombinant Human Bruton's Tyrosine Kinase (Btk) Inhibition Assay (HTRF KinEASE-TK)
Assay type: biochemical
Details: 20 ng/ml rhBtk, 77 μM ATP (KM), 1 μM TK-Biotin substrate, 90 min; read-out: hBTK IC50
We label by threshold. Values of IC50 strictly beneath 9 nM are T. Values of 9 nM and up are F.

Ask | Quick check: IC50 of `CC1(O)CN(C(=O)N2CC=C(c3cc4c(-c5cccc(N6CCOc7cc(C8CC8)cc(F)c7C6=O)c5CO)ccnc4[nH]3)CC2)C1` under 9 nM?
Reply | T

Ask | Quick check: IC50 of `Cc1c(-c2ncnc3[nH]c(-c4ccc(CN5CCOCC5)cc4)cc23)cccc1N1CCc2cc(C3CC3)ccc2C1=O` under 9 nM?
Reply | F

Ask | Quick check: IC50 of `Cc1c(-c2nc(N)nc3[nH]c(-c4ccc(CN5CCN(C)CC5)cc4)cc23)cccc1N1CCOc2cc(C3CC3)ccc2C1=O` under 9 nM?
Reply | F

Ask | Quick check: IC50 of `Cc1c(-c2ncnc3[nH]c(-c4ccc(N5CCN(C)CC5)cc4)cc23)cccc1N1CCOc2cc(C3CC3)ccc2C1=O` under 9 nM?
Reply | F

Ask | Quick check: IC50 of `CN(C)C(=O)N1CCN(Cc2ccc(-c3cc4c(-c5cccc(N6CCOc7cc(C8CC8)ccc7C6=O)c5CO)ccnc4[nH]3)nc2)CC1` under 9 nM?
Reply | F

* * *

Each entry below lists one item and its recorded pIC50 value.
System: mouse splenocytes
Experiment: Inhibition of B Cell Activation as Measured by CD69 Expression in Mouse Splenocytes
Assay type: cell-based
Settings: Splenocyte; C57/BL6 splenocytes, 3 ug/mL goat anti-mouse IgM, 18-20 hrs, CD69+ve cells within CD19; read-out: Mouse spleenocyte IC50
Remember the convention: pIC50 equals -log10 of concentration in molar.

Example results:
compound="Cc1c(-c2nc(N)nc3[nH]c(-c4ccc(C(=O)N5CCOCC5)cc4)cc23)cccc1N1CCOc2cc(C3CC3)ccc2C1=O [Example O-1]" meas_value=6.77
compound="CC(C)(O)CN1CC=C(c2cc3c(-c4cccc(N5CCOc6cc(C7CC7)cc(F)c6C5=O)c4CO)ccnc3[nH]2)CC1 [Example P-23]" meas_value=7.12
compound="CCN1CCN(Cc2ccc(-c3cc4c(-c5cccc(N6CCOc7cc(C8CC8)ccc7C6=O)c5CO)ccnc4[nH]3)cc2)CC1 [Example B-16]" meas_value=7.77

Ask | # pIC50 lookup, item CN(C)C(=O)N1CC=C(c2cc3c(-c4cccc(N5CCOc6cc(C(C)(C)O)ccc6C5=O)c4CO)ccnc3[nH]2)CC1 [Example P-10]
Reply | 7.03

Ask | # pIC50 lookup, item CCN1CC(N2CC=C(c3cc4c(-c5cccc(N6CCOc7cc(C8CC8)cc(F)c7C6=O)c5CO)ccnc4[nH]3)CC2)C1 [Example R-2]
Reply | 7.68

Ask | # pIC50 lookup, item Cc1c(-c2ncnc3[nH]c(-c4ccc(CN5CCC(O)CC5)cc4)cc23)cccc1N1CCc2cc(C3CC3)ccc2C1=O [Example B-22]
Reply | 6.86
